IC50 ratio PbCDPK1/PfCDPK1 by entry:
- test_target: PbCDPK1 (Plasmodium berghei, UniProt A0A509AHB6)
- Sequence (A0A509AHB6 whole entry): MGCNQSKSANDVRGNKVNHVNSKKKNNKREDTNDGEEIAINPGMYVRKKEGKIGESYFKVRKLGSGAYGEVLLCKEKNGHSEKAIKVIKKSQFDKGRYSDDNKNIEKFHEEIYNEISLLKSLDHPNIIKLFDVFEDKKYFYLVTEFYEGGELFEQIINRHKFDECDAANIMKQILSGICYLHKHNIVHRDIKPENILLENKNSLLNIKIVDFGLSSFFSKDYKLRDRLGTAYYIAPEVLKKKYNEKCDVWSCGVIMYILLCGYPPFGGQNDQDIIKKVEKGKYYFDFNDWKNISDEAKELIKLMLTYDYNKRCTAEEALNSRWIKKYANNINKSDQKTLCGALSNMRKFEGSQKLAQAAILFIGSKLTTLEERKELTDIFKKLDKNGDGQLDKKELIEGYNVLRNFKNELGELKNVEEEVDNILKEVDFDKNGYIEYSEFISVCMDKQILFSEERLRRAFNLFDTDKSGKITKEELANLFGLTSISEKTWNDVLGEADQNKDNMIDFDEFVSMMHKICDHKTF
- protocol_description: Rh-ParM ADP sensor IC50 assay, PbCDPK1
readout_name: IC50 ratio PbCDPK1/PfCDPK1

{"compound": "CC(C)CCNc1cc(-c2cnc3ccc(NC4CCN(C)CC4)nn23)ccn1", "observed_value": 3.5}
{"compound": "CN(C)C1CCN(c2ccc3ncc(-c4cnc(Nc5ncccc5F)nc4)n3n2)C1 (stereo not shown)", "observed_value": 3.0}
{"compound": "c1ccc(-n2cc(-c3cnc4ccc(NC5CCNCC5)nn34)cn2)cc1", "observed_value": 4.3}
{"compound": "CN1CCC(Nc2ccn3ncc(-c4cccc(NC(=O)c5ccccc5)c4)c3n2)CC1", "observed_value": 3.8}
